Target: GST-RIPK1 (recombinant GST-RIPK1 kinase domain (residues 1-327)) (Homo sapiens)
Construct: recombinant GST-RIPK1 kinase domain (residues 1-327) enzyme produced from baculovirus-transfected Sf21 cells
Sequence (Q13546 1-327): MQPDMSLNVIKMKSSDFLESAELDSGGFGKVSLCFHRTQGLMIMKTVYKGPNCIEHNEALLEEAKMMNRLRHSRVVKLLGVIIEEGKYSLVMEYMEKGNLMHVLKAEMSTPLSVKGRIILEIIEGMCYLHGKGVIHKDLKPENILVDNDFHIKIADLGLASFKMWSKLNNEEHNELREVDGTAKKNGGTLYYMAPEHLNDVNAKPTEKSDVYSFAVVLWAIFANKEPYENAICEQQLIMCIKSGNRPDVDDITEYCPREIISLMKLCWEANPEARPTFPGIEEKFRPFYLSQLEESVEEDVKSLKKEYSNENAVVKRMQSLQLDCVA
Assay: RIPK1-ADP-Glo Enzymatic Assay
Settings: ten-point titration, top compound concentration of 100000 nM; 25 nM GST-RIPK1, 300 μM ATP, 3 μM dephosphorylated-MBP; 30 min pre-incubation, 150 min reaction
measurementType: pEC50
FYI, pEC50 means -log10 of a concentration in mol per litre.

Inquiry: Returns the measured pEC50 for the input molecule. Input: O=C1N2C(CC[C@H]2c2cnccn2)OC12CC(OCc1ccc3nc(C(F)(F)F)cn3c1)C2 (stereo partly shown) [Example 18.103]
Reply text: 6.22

Inquiry: Field entry: COc1ccc2cc(COC3CC4(C3)OC3CC[C@@H](c5cnccn5)N3C4=O)cc(C)c2n1 (stereo partly shown) [Example 18.41]
Reply text: 7.28

Inquiry: Field entry: N#Cc1cccc(COC2CC3(C2)O[C@@H]2CC[C@@H](c4cnccn4)N2C3=O)c1 (stereo partly shown)
Reply text: 7.60

Inquiry: Field entry: O=C1N2[C@@H](CC[C@H]2c2ccc(F)cc2)O[C@]12C[C@H](Oc1nccc3nccn13)C2
Reply text: 7.72

Inquiry: Field entry: N#Cc1ccncc1COC1CC2(C1)OC1CC[C@@H](c3cnccn3)N1C2=O (stereo partly shown) [Example 18.93]
Reply text: 6.48

Inquiry: Field entry: O=C1N2[C@@H](CC[C@H]2c2cc(F)cc(F)c2)O[C@]12C[C@H](Oc1cc(Cl)ncn1)C2
Reply text: 8.00

Inquiry: Field entry: O=C1N2[C@@H](CC[C@H]2c2cc(F)cc(F)c2)O[C@]12C[C@H](Oc1cccnc1Cl)C2
Reply text: 7.80

###

Biological target: GST-RIPK1 (recombinant GST-RIPK1 kinase domain (residues 1-327)) (Homo sapiens, UniProt Q13546)
Construct: recombinant GST-RIPK1 kinase domain (residues 1-327) enzyme produced from baculovirus-transfected Sf21 cells
Sequence (Q13546 1-327): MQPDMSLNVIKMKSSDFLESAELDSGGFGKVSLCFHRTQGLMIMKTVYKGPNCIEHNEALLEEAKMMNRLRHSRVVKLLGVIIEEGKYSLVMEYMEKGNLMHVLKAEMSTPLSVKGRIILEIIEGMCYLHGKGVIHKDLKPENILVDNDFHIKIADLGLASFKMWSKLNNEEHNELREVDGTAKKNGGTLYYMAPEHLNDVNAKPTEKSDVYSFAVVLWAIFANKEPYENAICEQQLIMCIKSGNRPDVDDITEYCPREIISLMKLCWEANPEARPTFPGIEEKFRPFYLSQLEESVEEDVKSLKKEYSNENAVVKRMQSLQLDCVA
Experiment: RIPK1-ADP-Glo Enzymatic Assay
Conditions: ten-point titration, top compound concentration of 100000 nM; 25 nM GST-RIPK1, 300 μM ATP, 3 μM dephosphorylated-MBP; 30 min pre-incubation, 150 min reaction
Measured EC50 by item
Please respond with the number in µM and leave the unit unwritten.

Examples with answers:
| compound | assayValue |
| --- | --- |
| N#Cc1ccc(OC2CC3(C2)O[C@@H]2CC[C@@H](c4ccccc4)N2C3=O)cn1 (stereo partly shown) [Example 8.2] | 0.251 |
| N#Cc1ccnc(O[C@H]2C[C@@]3(C2)O[C@@H]2CC[C@@H](c4cc(F)cc(F)c4)N2C3=O)c1 [Example 10.1] | 0.009 |
| O=C1N2[C@@H](CC[C@H]2c2cncc(F)c2)OC12CCC(Oc1ccccc1)CC2 (single isomer, unassigned) [Example 16.4] | 0.476 |

Note: attention shifts to another entry.
Inquiry: Returns the measured EC50 for the input compound. Input: O=C1N2C(CC[C@H]2c2cnccn2)OC12CC(OCc1cnc3nccn3c1)C2 (stereo partly shown) [Example 18.46]
Reply text: 0.128
